Data origin: ChEMBL document CHEMBL1777794

METHOD: Volume of distribution at steady state in rat
Assay type: ADME, organism-based
EXPERIMENTAL CONTEXT: in vivo, read-out: Vdss
MEASURED METRIC: Vd (L/kg)

* COC[C@H](O)Cn1c(=O)cnn(-c2ccc(Cl)c(C(=O)NCC3(O)CCCCCC3)c2)c1=O [CE-224535] | 7.6
* O=C(NCC1(O)CCCCCC1)c1cc(-n2ncc(=O)[nH]c2=O)ccc1Cl | 8.5

* * *

METHOD: in vivo
EXPERIMENTAL CONTEXT: dog, plasma
MEASURED METRIC: clearance (mL/min/kg)
Your answer should be a plain number; it is taken to be in mL/min/kg.

Check the records and state clearance for `O=C(NCC1(O)CCCCCC1)c1cc(-n2ncc(=O)[nH]c2=O)ccc1Cl`
3.8
